For each entry below, report its growth inhibition value.
# Measurement Protocol: inhibition of 3D7 malaria parasite growth – strain 3D7 (AID 2306);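 also: 0% = DMSO wells and 100% = chloroquine plus artemisinin control wells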
# Conditions Used: P. falciparum 3D7 erythrocytic growth, LDH absorbance, 72 h; at 2 µM; hits give high values
// return numeric value only (unit: %, not printed)

Consider `O=C(Nc1ccccc1O)c1ccc(Oc2cccc(C(=O)Nc3ccccc3O)c2)cc1` . Its measured growth inhibition is 97

growth inhibition for `O=C(Nc1ccc(-c2cccc(-c3nc4ccc(C(F)(F)F)cc4[nH]3)c2)cc1)c1cccnc1` is 100

Reported growth inhibition of CCc1cc(I)c2c(c1)C(NCCCNc1cc(=O)c3ccccc3[nH]1)CCN2 (stereo not given) : 89

Memo: `O=C(C=Cc1cn(-c2ccccc2)nc1-c1cccs1)N1CCN(c2ccncc2)CC1` , reported growth inhibition: 100

response.value for `O=C(Nc1cccc(C(F)(F)F)c1)Nc1ccc(Cl)c(Cl)c1` (field: growth inhibition) = 100

growth inhibition in this record for `Cc1sc2ccc(Cl)cc2c1S(=O)(=O)Nc1ccc2nccc(N3C[C@@H](C)N[C@@H](C)C3)c2c1` : 100

Lab note: measured growth inhibition of `c1ccc(Oc2cccc(Nc3ccnc4ccccc34)c2)cc1` was 95

Record summary for `COc1cc2c(Nc3ccc(NC(=O)c4ccccc4)cc3)ncnc2cc1OCCCN1CCOCC1` : reported growth inhibition = 99

Short answer for `CN(C)CCOc1cc(NC(=O)Nc2ccc(-c3ccncc3)c(C(F)(F)F)c2)ccc1Cl` : growth inhibition was 100

Sure, the documented growth inhibition for CCCCCN1CCCC1CNS(=O)(=O)c1ccc(C(=O)Nc2cccc(C(F)(F)F)c2)cc1 (stereo not given) is 95
